Reported Kb is given for each of the following compounds.
# System Under Test: histamine H1 (guinea-pig ileum) (Cavia porcellus)
# Construct: from tissue; host or cells: guinea-pig ileum (isolated organ)
# Sequence (P31389 whole entry): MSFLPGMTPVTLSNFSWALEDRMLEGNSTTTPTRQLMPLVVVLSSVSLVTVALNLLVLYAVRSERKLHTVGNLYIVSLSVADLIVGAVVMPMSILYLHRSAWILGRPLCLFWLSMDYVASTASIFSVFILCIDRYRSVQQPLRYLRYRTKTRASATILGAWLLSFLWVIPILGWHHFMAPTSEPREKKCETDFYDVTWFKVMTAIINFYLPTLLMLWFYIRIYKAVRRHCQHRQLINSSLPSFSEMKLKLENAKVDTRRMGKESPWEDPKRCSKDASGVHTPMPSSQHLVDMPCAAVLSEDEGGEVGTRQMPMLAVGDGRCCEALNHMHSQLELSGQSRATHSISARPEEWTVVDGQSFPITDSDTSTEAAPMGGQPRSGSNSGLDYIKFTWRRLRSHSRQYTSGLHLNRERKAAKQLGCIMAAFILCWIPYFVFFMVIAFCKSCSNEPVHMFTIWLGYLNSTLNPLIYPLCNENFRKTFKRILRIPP
# Procedure Summary: Histamine H1-activity, guinea-pig ileum
# Details: guinea-pig ileum; ±0,2; mean of at least two experiments in quadruplicate
Please reply with the bare figure in µM and do not write the unit itself.

// known answers, use as guide
NC(=NCCCc1c[nH]cn1)NCCSCc1ccccc1 [XII, reference compound] | 3.16
N=C(NCCCc1c[nH]cn1)NCCOC(c1ccccc1)c1ccccc1 | 0.0316
N=C(NCCCc1c[nH]cn1)NCCSC(c1ccccc1)c1ccccc1 | 0.316

Q. Return reported Kb for target or system histamine H1 (guinea-pig ileum) (Cavia porcellus), item N=C(NCCc1c[nH]cn1)NCCC(c1ccccc1)c1ccccc1 .
A. 0.631
